System: Caco-2
Assay: cell viability relative to DMSO; higher = less toxic
Details: 72 h; 10 nM
Endpoint label: cell viability (%)
Please reply with the bare figure in % and do not write the unit itself.

- Compound: "CCCN1CCN(c2ccc(C(=O)NC3(C(=O)NCC#N)CCCCC3)cc2)CC1 [balicatib]"
  Tested on: "Caco-2"
  Endpoint label: "cell viability"
  Unit abbrev: "%"
  Recorded number: 101

Prompt: Endpoint output: cell viability of O=C(O)c1ccc(S(=O)(=O)N(Cc2ccc(OC(F)(F)F)cc2)c2ncc(C(F)(F)F)cc2Cl)cc1 . Value?
Response: 92.3

Prompt: Endpoint output: cell viability of COc1ccc(-n2c(C)c([N+](=O)[O-])c3ccc(O)cc32)cc1 [ID-8] . Value?
Response: 111

Prompt: Endpoint output: cell viability of CC1=CC(=O)c2ccccc2C1=O [menadione] . Value?
Response: 103

Prompt: Endpoint output: cell viability of CNC(=O)c1cc(COc2nnc(Nc3ccc(Cl)cc3)c3ccoc23)ccn1 [telatinib] . Value?
Response: 95.4

Prompt: Endpoint output: cell viability of CN1CCC[C@@H]1CCSc1ccc(O)cc1 [SIB-1553A] . Value?
Response: 100
